From: the supplement of paper PMC10567573

# experiment: protein stability index of a GFP-peptide fusion (GPS, HEK-293T) (PSI 1-6); higher = more stable;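 also: 24-mer peptide tiles fused after GFP, lentivirally expressed, FACS-sorted into six equal bins by GFP/DsRed ratio, decoded by Illumina sequencing, PSI is the read-weighted mean bin number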
# statedConditions: treatment: DMSO; c terminus: a fixed tail appended
Lab note: anything with protein stability index at or over 3 counts as true; the rest go in false.

- sequenceData: "EDTQRHETYHQQGQCQVLVQRSPW [TCAP]"
  category: "true"
- sequenceData: "FEKWEQETAAGKGKGEARARLKRS [SMTNL2]"
  category: "true"
- sequenceData: "SKRNIKKGAVPRSIPNLAEVKKKG [HDAC6]"
  category: "true"
- sequenceData: "RCHTVPCAGSTALQEPGEPQGPPA [PXN]"
  category: "true"
- sequenceData: "IPNAASEEGDEDDWASNKVMFKIG [WEE1]"
  category: "true"
- sequenceData: "AHSNAISNCCFTFSGHFLCTSSWD [WDR88]"
  category: "false"
- sequenceData: "TRRSCIDESQISAEEAEDHGRIPD [FAM189A2]"
  category: "true"
- sequenceData: "YGMQTQNYPKGGLLDSMCPASTPS [ETS2]"
  category: "true"
- sequenceData: "VDDKFGTGTKKVTRILDGGNPFLD [PSD2]"
  category: "true"
- sequenceData: "NQNNYRLLSCGKILTGCKNMLFQQ [ACSBG2]"
  category: "false"
- sequenceData: "ATYLRCQLLLIKALQEKLWNVAAP [INTS4]"
  category: "true"
- sequenceData: "KKDNHALVRETDELRRNHCFQDFK [ELOA2]"
  category: "true"
- sequenceData: "LICEGLYPASIVDEPTFKVLLKTA [ZBED1]"
  category: "false"
- sequenceData: "KETEFLRLKRTRLGLDDFESLKVI [STK38L]"
  category: "false"
- sequenceData: "STSLPDPGDFDRNVPRICGVCGDR [VDR]"
  category: "true"
- sequenceData: "NSFGAILQGSLFGLAGLLPASYTA [SLC29A1]"
  category: "false"
- sequenceData: "FLDIPRSRLVKYPLLLKEILKHTP [NET1]"
  category: "false"
- sequenceData: "REDNSGSDVLIGDILVLLGASLYA [SLC35F2]"
  category: "false"
- sequenceData: "QTWVRDHHPENGEEAVTVLEDLES [ZNF24]"
  category: "true"
- sequenceData: "PKQLYFSARQGELQKVLLMLVDGI [EHMT1]"
  category: "false"
- sequenceData: "VAIAQKFAALRASLVAPLLLELAG [MYORG]"
  category: "false"
- sequenceData: "QFTSSSSMKGSCGIGGGIGGGSSR [KRT16]"
  category: "true"
- sequenceData: "RMDTPPPEERLEKQNEKLNNQEEE [CCDC89]"
  category: "true"
- sequenceData: "CYRENTHQTLKCSALATQYMHCVN [CHCHD3]"
  category: "false"
- sequenceData: "LDHDIFQLIDPDENKENEAFEFKK [CDC25A]"
  category: "true"
- sequenceData: "IFNHERFFWHLTLPERRGTCADRD [CASP6]"
  category: "false"
